Values compiled from the RepoRT retention time repository (doi:10.1016/j.jchromb.2020.122105).

- assay_explanation: RP, Waters CORTECS T3, 100 × 2.1 mm, 2.7 µm, 0.2 mL/min, estimated dead time 1.1 min; A: water + 0.1% formic acid, pH 3; B: methanol + 0.1% formic acid, pH 3; gradient (min/%B) 0/5 5/5 25/95 25.1/100 35/100 35.1/5 45/5
- measurement_setup: stereoisomer not certain
Friendly reminder: LC retention time below 7 min is YES, at or above is NO.

Some solved cases for reference:
- molecule: "O=C(O)c1cc(=O)c2cccc(O)c2[nH]1 [XANTHURENIC ACID]"
  class_label: "NO"
- molecule: "Nc1ncnc2c1ncn2C1CC(O)C(COP(=O)(O)O)O1 (stereo not drawn) [DAMP]"
  class_label: "YES"
- molecule: "CC(=O)N[C@@H](CC(C)C)C(=O)O [N-ACETYL-L-LEUCINE]"
  class_label: "NO"
- molecule: "Nc1nc2c(ncn2C2OC3COP(=O)(O)OC3C2O)c(=O)[nH]1 (stereo not drawn) [GUANOSINE 3',5'-CYCLIC MONOPHOSPHATE]"
  class_label: "NO"
- molecule: "CC(CCC(=O)O)C1CCC2C3C(O)CC4CC(O)CCC4(C)C3CC(O)C12C (stereo not drawn) [CHOLATE]"
  class_label: "NO"

Let's switch to this molecule now.
Problem: Lab note: confirm whether the reported LC retention time for this molecule is below 7 min, equality not counting. molecule: O=c1[nH]c(=O)c2[nH]c(=O)[nH]c2[nH]1 [URATE]
Solution: YES

----------
Listing of entries alongside the reported LC retention time.
- assay_explanation: RP, Waters CORTECS T3, 100 × 2.1 mm, 2.7 µm, 0.1 mL/min, estimated dead time 2.2 min; A: water + 0.1% formic acid, pH 3; B: methanol + 0.1% formic acid, pH 3; gradient (min/%B) 0/0 1/0 6/5 30/100 35/100 35.1/0 40/0
- measurement_setup: stereoisomer not certain
Reply with just the number (in min).

Illustrative cases are given below, each with its answer.
- compound: "CCCCCCCCC=CCCCCCCCC(=O)OCC(O)CO (racemic) [1-OLEOYL-RAC-GLYCEROL]"
  reported_result: 26.2
- compound: "Cn1c(=O)c2c(ncn2C)n(C)c1=O [CAFFEINE]"
  reported_result: 11.5

Problem: Query (compound): N[C@@H](Cc1cc(I)c(Oc2ccc(O)cc2)c(I)c1)C(=O)O [3,5-DIIODO-L-THYRONINE] ; field requested: LC retention time
Solution: 17.1

Problem: So what's the measured LC retention time for this one? N[C@@H](Cc1cc(I)c(O)c(I)c1)C(=O)O [3,5-DIIODO-L-TYROSINE]
Solution: 12.5

Problem: Query (compound): Cc1cc2nc3c(=O)[nH]c(=O)nc-3n(CC(O)C(O)C(O)CO)c2cc1C (stereo not drawn) [RIBOFLAVIN] ; field requested: LC retention time
Solution: 13.1

----------
- assay_explanation: RP, Waters CORTECS T3, 100 × 2.1 mm, 2.7 µm, 0.3 mL/min, estimated dead time 0.73 min; A: water + 0.1% formic acid, pH 3; B: methanol + 0.1% formic acid, pH 3; gradient (min/%B) 0/5 5/5 25/100 30/100 30.1/5 35/5
- measurement_setup: stereoisomer not certain
metric_name: LC retention time (min)
Just the number please, in min, no unit attached.

Completed entries (count: 6):
- compound: "O=C([O-])Cc1c[nH]c2ccccc12 [INDOLE-3-ACETATE]"
  unit: "min"
  LC retention time: 12.9
- compound: "N[C@@H](Cc1cc(I)c(O)c(I)c1)C(=O)O [3,5-DIIODO-L-TYROSINE]"
  unit: "min"
  LC retention time: 10.9
- compound: "Nc1nc2c(ncn2C2OC3COP(=O)(O)OC3C2O)c(=O)[nH]1 (centres undefined) [GUANOSINE 3',5'-CYCLIC MONOPHOSPHATE]"
  unit: "min"
  LC retention time: 2.67
- compound: "CCOC(=O)Cc1c[nH]c2ccccc12 [ETHYL 3-INDOLEACETATE]"
  unit: "min"
  LC retention time: 16.9
- compound: "NC(=O)Cc1c[nH]c2ccccc12 [INDOLE-3-ACETAMIDE]"
  unit: "min"
  LC retention time: 9.85
- compound: "CC(=O)N[C@@H](Cc1ccccc1)C(=O)O [N-ACETYL-L-PHENYLALANINE]"
  unit: "min"
  LC retention time: 11.8

Problem: What value of LC retention time has been recorded for this entry: CNCCc1c[nH]c2ccccc12 [N-METHYLTRYPTAMINE]
Solution: 8.14

Problem: Given O=C(O)c1cc(=O)c2cccc(O)c2[nH]1 [XANTHURENIC ACID] , state its recorded LC retention time.
Solution: 8.94

Problem: # query: LC retention time of entry O=C(O)CCCCC1SCC2NC(=O)NC21 (centres undefined) [BIOTIN]
Solution: 10.7
